The entries below pair molecules with pKi values for Adenosine receptor A1 (Rattus norvegicus), as found in several publications.
Remember, pKi is on a log scale: it is -log10 of the molar concentration.

// worked examples, pKi included
[[record]]
molecule = "CCCn1c(=O)c2c(nc3n2CCCN3CCc2ccc(OCC(=O)NCCCNC3CCCCC3)cc2)n(CCC)c1=O"
reported_value = 6.84

[[record]]
molecule = "CCNC(=O)[C@H]1O[C@@H](n2cnc3c(NC(=O)Nc4cccc(Br)c4)ncnc32)[C@H](O)[C@@H]1O"
reported_value = 6.60


Continue with the next molecule.
// fetch pKi given entry CCCOc1ccc(NC(=O)Nc2ncnc3c2ncn3C2O[C@H](C(=O)NCC)[C@@H](O)[C@H]2O)cc1 (some centres undefined)
6.61
